Tested on: HL-60(TB) leukemia
Assay: NCI-60 one-dose screen, 48 h (100 = growth as untreated, 0 = no growth, -100 = all killed)
Details: 10 µM unless noted
Compounds without any hit were thinned out: in the full panel of roughly 83,000, 20% have a hit.
Field: label. Allowed values: fulfilled (growth < -30%) or not fulfilled (growth >= -30%).

Field: example entries. Status: answers known.
> print(dat)
                                   compound          label
1  Clc1ccc2c(NCCCN3CCN(c4nc(N5CCOCC5)nc5ccccc45)CC3)ccnc2c1      fulfilled
2  CCN(CC)CC(=O)Nc1ccc2ncnc(Nc3ccc(Oc4cccc(F)c4)c(Cl)c3)c2c1  not fulfilled
3  Nc1ncnc2c1c(-c1ccc(Oc3ccccc3)cc1)nn2C[C@@H]1SSC[C@@H]1O  not fulfilled
4     Cn1c(I)c(C#C[Si](C)(C)C)c(=O)[nH]c1=O      fulfilled
5  CC(C)Cc1ccc(C(C)C(=O)NCc2ccc(Cn3c(=O)sn(-c4ccc(Cl)cc4)c3=O)cc2)cc1 (centres undefined)  not fulfilled

Lookup: Quick check: does CC(C)c1ccc(NC(=O)Nc2ccc(NC(=O)c3ccccc3N)cc2)cc1 have growth under -30%?
Found: not fulfilled
